test system: Paracoccus sp. (4M6); test: Anti-adhesion test, strain 4M6; type: cell-based; settings: Paracoccus, read-out: EC50 (effective concentration to inhibit 50% of the adhesion), 4M6
Exam item: assign Criterion met to entries whose EC50 is below 70 µM and Criterion not met to entries at or above 70 µM. Note that a value of exactly 70 µM receives Criterion not met.

CN(C)CCOc1ccc(CCn2cc(-c3ccc(-c4cn(CCc5ccc(OCCN(C)C)c(Br)c5)nn4)cc3)nn2)cc1Br [AS162]    Criterion met
CN(C)CCOc1ccc(-n2cc(-c3ccc(-c4cn(-c5ccc(OCCN(C)C)cc5)nn4)cc3)nn2)cc1 [SA61]    Criterion not met
CN(C)CCCOc1ccc(CCn2cc(-c3ccc(-c4cn(CCc5ccc(OCCCN(C)C)cc5)nn4)cc3)nn2)cc1 [SA12]    Criterion not met
Oc1ccc(CCn2cc(CNCc3cn(CCc4ccc(O)c(Br)c4)nn3)nn2)cc1Br [NT27]    Criterion not met
Oc1ccc(CCn2cc(COCc3cn(CCc4ccc(O)c(Br)c4)nn3)nn2)cc1Br [NT26]    Criterion not met
CN(C)CCCOc1c(Br)cc(CCn2cc(-c3ccc(-c4cn(CCc5cc(Br)c(OCCCN(C)C)c(Br)c5)nn4)cc3)nn2)cc1Br [SA34]    Criterion met
CN(C)CCCOc1ccc(CCn2cc(-c3ccc(-c4cn(CCc5ccc(OCCCN(C)C)c(Cl)c5)nn4)cc3)nn2)cc1Cl [SA64]    Criterion met
COc1ccc(CCn2cc(CNCc3cn(CCc4ccc(OC)c(Br)c4)nn3)nn2)cc1Br [NT7]    Criterion not met
